- target-under-test: UniProtKB P03372
- Sequence (P03372 whole entry): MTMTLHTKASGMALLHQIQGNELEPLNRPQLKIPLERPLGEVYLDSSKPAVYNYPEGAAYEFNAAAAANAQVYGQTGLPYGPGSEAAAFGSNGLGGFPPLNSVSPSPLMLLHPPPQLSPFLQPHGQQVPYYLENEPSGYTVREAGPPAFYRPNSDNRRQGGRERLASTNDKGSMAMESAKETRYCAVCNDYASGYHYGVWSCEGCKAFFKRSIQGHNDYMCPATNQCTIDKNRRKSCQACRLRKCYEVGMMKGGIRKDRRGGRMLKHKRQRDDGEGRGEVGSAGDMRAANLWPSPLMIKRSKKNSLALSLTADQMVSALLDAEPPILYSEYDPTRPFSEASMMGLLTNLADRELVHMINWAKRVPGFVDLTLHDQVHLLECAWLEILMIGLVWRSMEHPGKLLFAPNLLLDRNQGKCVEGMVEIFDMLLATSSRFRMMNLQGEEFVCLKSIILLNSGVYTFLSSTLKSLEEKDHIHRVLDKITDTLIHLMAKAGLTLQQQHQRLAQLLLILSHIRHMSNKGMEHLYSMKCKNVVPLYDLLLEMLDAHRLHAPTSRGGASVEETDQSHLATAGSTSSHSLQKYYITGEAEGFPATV
- assay-text: Induction of ERalpha degradation in human MCF7 cells at 0.1 uM measured after 24 hrs by Western blot analysis
- Assay type: cell-based
Readings of Activity for the listed compounds

>  <compound>
CC(C)(F)CN1CCc2cc(O)ccc2C1c1ccc(OCCCCCCC(=O)NO)cc1 (stereo not given)

>  <Activity>
57%

$$$$
>  <compound>
CC(C)(F)CN1CCc2cc(O)ccc2C1c1ccc(OC2CN(CC(=O)NO)C2)cc1 (stereo not given)

>  <Activity>
32%

$$$$
>  <compound>
CC(C)(F)CN1CCc2cc(O)ccc2C1c1ccc(C(=O)NO)cc1 (stereo not given)

>  <Activity>
5%

$$$$

Please turn your attention to the following entry.
-- ask Recall the recorded Activity for CC(C)(F)CN1CCc2cc(O)ccc2C1c1ccc(OCCCCCC(=O)NO)cc1 (stereo not given) with UniProtKB P03372 and state it.
-- reply 31%
